Target under test: T1, TNFR1 (Homo sapiens, UniProt P19438)
T1 chain: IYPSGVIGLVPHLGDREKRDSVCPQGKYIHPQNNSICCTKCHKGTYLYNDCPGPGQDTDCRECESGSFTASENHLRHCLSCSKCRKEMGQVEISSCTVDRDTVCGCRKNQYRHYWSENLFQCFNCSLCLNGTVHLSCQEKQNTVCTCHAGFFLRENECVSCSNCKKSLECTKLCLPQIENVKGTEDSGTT
Assay overview: yeast display SC50
Readout name: apparent Kd (screen) (nM)
Answers are plain numbers, in nM.

Worked examples follow.
Binder | Readout unit | apparent Kd (screen)
V60W (designed binder) MTLQELLREEALRRAEAEAFRYALELLAEKFPEQKEYLLDLAEEIESQIRSLSGVDVEDWRKFLDKEWAWVKELLAEHPAELAEVEAARAARLAELRAEVEAKVAA | nM | 0.79
A105E (designed binder) MTLQELLREEALRRAEAEAFRYALELLAEKFPEQKEYLLDLAEEIESQIRSLSGVDVEDVRKFLDKEWAWVKELLAEHPAELAEVEAARAARLAELRAEVEAKVEA | nM | 0.593
E5R (designed binder) MTLQRLLREEALRRAEAEAFRYALELLAEKFPEQKEYLLDLAEEIESQIRSLSGVDVEDVRKFLDKEWAWVKELLAEHPAELAEVEAARAARLAELRAEVEAKVAA | nM | 0.49
L93F (designed binder) MTLQELLREEALRRAEAEAFRYALELLAEKFPEQKEYLLDLAEEIESQIRSLSGVDVEDVRKFLDKEWAWVKELLAEHPAELAEVEAARAARFAELRAEVEAKVAA | nM | 0.539
Y22H (designed binder) MTLQELLREEALRRAEAEAFRHALELLAEKFPEQKEYLLDLAEEIESQIRSLSGVDVEDVRKFLDKEWAWVKELLAEHPAELAEVEAARAARLAELRAEVEAKVAA | nM | 0.49
K35D (designed binder) MTLQELLREEALRRAEAEAFRYALELLAEKFPEQDEYLLDLAEEIESQIRSLSGVDVEDVRKFLDKEWAWVKELLAEHPAELAEVEAARAARLAELRAEVEAKVAA | nM | 1.27

Please report apparent Kd (screen) for every entry that follows.
1. E58W (designed binder) MTLQELLREEALRRAEAEAFRYALELLAEKFPEQKEYLLDLAEEIESQIRSLSGVDVWDVRKFLDKEWAWVKELLAEHPAELAEVEAARAARLAELRAEVEAKVAA
2. A15C (designed binder) MTLQELLREEALRRCEAEAFRYALELLAEKFPEQKEYLLDLAEEIESQIRSLSGVDVEDVRKFLDKEWAWVKELLAEHPAELAEVEAARAARLAELRAEVEAKVAA

1. 0.653
2. 0.539
